B1: Far upstream element-binding protein 2, residues 142 to 214; numbered along this chain, Q92945 (parent)
chain: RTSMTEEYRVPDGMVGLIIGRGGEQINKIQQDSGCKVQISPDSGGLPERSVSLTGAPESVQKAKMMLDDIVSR

Variants of: B1
Assay: abundance fitness (aPCA) (normalised: wild type 0, dead -1); higher = more abundant; growth selection in yeast, the domain comes from the species named
Settings: Homo sapiens
RESULT_TYPE: abundance fitness

{"MUTATION_KEY": "P57W", "MEASURED_RESULT": -0.24}
{"MUTATION_KEY": "S40G", "MEASURED_RESULT": -0.042}
{"MUTATION_KEY": "R21L", "MEASURED_RESULT": 0.042}
{"MUTATION_KEY": "Q61T", "MEASURED_RESULT": -0.018}
{"MUTATION_KEY": "Q30L", "MEASURED_RESULT": -0.241}
{"MUTATION_KEY": "G34H", "MEASURED_RESULT": -0.384}
{"MUTATION_KEY": "L46T", "MEASURED_RESULT": -0.002}
{"MUTATION_KEY": "P47R", "MEASURED_RESULT": -0.104}
{"MUTATION_KEY": "G55H", "MEASURED_RESULT": -0.887}
{"MUTATION_KEY": "I26N", "MEASURED_RESULT": -0.852}
{"MUTATION_KEY": "G44S", "MEASURED_RESULT": -0.09}
{"MUTATION_KEY": "K28D", "MEASURED_RESULT": -0.431}
{"MUTATION_KEY": "Q31Y", "MEASURED_RESULT": -0.166}
{"MUTATION_KEY": "M66R", "MEASURED_RESULT": -0.512}
{"MUTATION_KEY": "K28P", "MEASURED_RESULT": -0.751}
{"MUTATION_KEY": "G44T", "MEASURED_RESULT": -0.017}
{"MUTATION_KEY": "A63G", "MEASURED_RESULT": -0.447}
{"MUTATION_KEY": "E48T", "MEASURED_RESULT": 0.006}
{"MUTATION_KEY": "Q61H", "MEASURED_RESULT": -0.196}
{"MUTATION_KEY": "D32G", "MEASURED_RESULT": -0.156}
{"MUTATION_KEY": "Q31R", "MEASURED_RESULT": -0.069}
{"MUTATION_KEY": "S43F", "MEASURED_RESULT": -0.328}
{"MUTATION_KEY": "Q31D", "MEASURED_RESULT": -0.16}
{"MUTATION_KEY": "S50Q", "MEASURED_RESULT": -0.139}
{"MUTATION_KEY": "G20Q", "MEASURED_RESULT": -0.4}
{"MUTATION_KEY": "G23L", "MEASURED_RESULT": -0.169}
{"MUTATION_KEY": "D32Y", "MEASURED_RESULT": -0.167}
{"MUTATION_KEY": "M66C", "MEASURED_RESULT": -0.427}
{"MUTATION_KEY": "D69H", "MEASURED_RESULT": -0.165}
{"MUTATION_KEY": "D42R", "MEASURED_RESULT": -0.11}
{"MUTATION_KEY": "Q38P", "MEASURED_RESULT": -0.831}
{"MUTATION_KEY": "Q61S", "MEASURED_RESULT": -0.06}
{"MUTATION_KEY": "Q38R", "MEASURED_RESULT": -0.028}
{"MUTATION_KEY": "I26A", "MEASURED_RESULT": -0.394}
{"MUTATION_KEY": "T54L", "MEASURED_RESULT": -0.256}
{"MUTATION_KEY": "S72N", "MEASURED_RESULT": 0.026}
{"MUTATION_KEY": "S40Y", "MEASURED_RESULT": -0.187}
{"MUTATION_KEY": "V71F", "MEASURED_RESULT": -0.157}
{"MUTATION_KEY": "V60G", "MEASURED_RESULT": -0.745}
{"MUTATION_KEY": "G20P", "MEASURED_RESULT": -0.576}
{"MUTATION_KEY": "Q31P", "MEASURED_RESULT": -0.98}
{"MUTATION_KEY": "D42K", "MEASURED_RESULT": -0.014}
{"MUTATION_KEY": "Q61W", "MEASURED_RESULT": -0.176}
{"MUTATION_KEY": "I70R", "MEASURED_RESULT": -0.568}
{"MUTATION_KEY": "K64E", "MEASURED_RESULT": -0.653}
{"MUTATION_KEY": "S43K", "MEASURED_RESULT": -0.1}
{"MUTATION_KEY": "P41I", "MEASURED_RESULT": -0.024}
{"MUTATION_KEY": "Q30F", "MEASURED_RESULT": -0.252}
{"MUTATION_KEY": "S52N", "MEASURED_RESULT": -0.177}
{"MUTATION_KEY": "Q31T", "MEASURED_RESULT": 0.015}
{"MUTATION_KEY": "Q31E", "MEASURED_RESULT": -0.08}
{"MUTATION_KEY": "G34F", "MEASURED_RESULT": -0.887}
{"MUTATION_KEY": "Q25W", "MEASURED_RESULT": -0.17}
{"MUTATION_KEY": "T54A", "MEASURED_RESULT": -0.255}
{"MUTATION_KEY": "K28G", "MEASURED_RESULT": -0.507}
{"MUTATION_KEY": "S33I", "MEASURED_RESULT": -0.452}
{"MUTATION_KEY": "M65V", "MEASURED_RESULT": 0.008}
{"MUTATION_KEY": "R73S", "MEASURED_RESULT": 0.055}
{"MUTATION_KEY": "I29M", "MEASURED_RESULT": -0.524}
{"MUTATION_KEY": "G34W", "MEASURED_RESULT": -1.02}
{"MUTATION_KEY": "N27D", "MEASURED_RESULT": -0.029}
{"MUTATION_KEY": "S72R", "MEASURED_RESULT": 0.052}
{"MUTATION_KEY": "D69P", "MEASURED_RESULT": -0.589}
{"MUTATION_KEY": "Q38T", "MEASURED_RESULT": 0.033}
{"MUTATION_KEY": "S52A", "MEASURED_RESULT": -0.094}
{"MUTATION_KEY": "G34E", "MEASURED_RESULT": -0.243}
{"MUTATION_KEY": "P41C", "MEASURED_RESULT": -0.017}
{"MUTATION_KEY": "Q61R", "MEASURED_RESULT": 0.013}
{"MUTATION_KEY": "G34S", "MEASURED_RESULT": -0.357}
{"MUTATION_KEY": "V71E", "MEASURED_RESULT": -0.485}
{"MUTATION_KEY": "I26C", "MEASURED_RESULT": -0.524}
{"MUTATION_KEY": "G23M", "MEASURED_RESULT": -0.141}
{"MUTATION_KEY": "N27E", "MEASURED_RESULT": -0.006}
{"MUTATION_KEY": "P47N", "MEASURED_RESULT": -0.13}
{"MUTATION_KEY": "C35H", "MEASURED_RESULT": -0.917}
{"MUTATION_KEY": "E24S", "MEASURED_RESULT": -0.076}
{"MUTATION_KEY": "K62V", "MEASURED_RESULT": -0.127}
{"MUTATION_KEY": "M66A", "MEASURED_RESULT": -0.185}
{"MUTATION_KEY": "D68S", "MEASURED_RESULT": -0.138}
{"MUTATION_KEY": "K36E", "MEASURED_RESULT": -0.036}
{"MUTATION_KEY": "Q30K", "MEASURED_RESULT": -0.181}
{"MUTATION_KEY": "G34D", "MEASURED_RESULT": -0.274}
{"MUTATION_KEY": "Q30V", "MEASURED_RESULT": -0.132}
{"MUTATION_KEY": "Q61I", "MEASURED_RESULT": -0.064}
{"MUTATION_KEY": "S59M", "MEASURED_RESULT": -0.206}
